Target: human TAS1R2-WT/TAS1R3-R813K (Homo sapiens, UniProt Q7RTX0+Q8TE23, R813K)
Construct: expressed in transfected cells; host or cells: HEK293T stably expressing Gα16gust44
Sequence (Q8TE23 20-839): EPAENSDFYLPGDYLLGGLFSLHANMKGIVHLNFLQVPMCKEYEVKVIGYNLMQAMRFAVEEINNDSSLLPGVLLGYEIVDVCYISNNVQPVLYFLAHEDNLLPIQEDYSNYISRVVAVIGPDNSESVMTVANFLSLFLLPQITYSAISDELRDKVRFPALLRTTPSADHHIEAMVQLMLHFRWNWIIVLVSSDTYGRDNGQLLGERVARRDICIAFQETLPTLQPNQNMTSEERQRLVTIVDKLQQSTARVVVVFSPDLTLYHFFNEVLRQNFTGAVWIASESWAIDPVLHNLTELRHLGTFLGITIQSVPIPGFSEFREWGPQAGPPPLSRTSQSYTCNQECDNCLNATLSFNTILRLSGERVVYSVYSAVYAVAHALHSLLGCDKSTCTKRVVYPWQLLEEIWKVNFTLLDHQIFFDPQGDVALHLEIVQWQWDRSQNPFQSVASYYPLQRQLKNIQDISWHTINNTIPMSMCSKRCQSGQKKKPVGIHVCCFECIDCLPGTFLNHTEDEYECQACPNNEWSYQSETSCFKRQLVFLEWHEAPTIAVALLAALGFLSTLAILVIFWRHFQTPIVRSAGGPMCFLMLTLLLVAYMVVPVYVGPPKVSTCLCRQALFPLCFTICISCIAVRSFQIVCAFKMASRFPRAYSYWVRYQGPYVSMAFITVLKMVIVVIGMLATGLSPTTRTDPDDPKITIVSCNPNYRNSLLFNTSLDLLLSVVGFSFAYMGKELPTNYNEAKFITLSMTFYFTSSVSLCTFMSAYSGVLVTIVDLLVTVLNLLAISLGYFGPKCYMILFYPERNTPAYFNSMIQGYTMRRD
Sequence (Q7RTX0 21-852 R813K): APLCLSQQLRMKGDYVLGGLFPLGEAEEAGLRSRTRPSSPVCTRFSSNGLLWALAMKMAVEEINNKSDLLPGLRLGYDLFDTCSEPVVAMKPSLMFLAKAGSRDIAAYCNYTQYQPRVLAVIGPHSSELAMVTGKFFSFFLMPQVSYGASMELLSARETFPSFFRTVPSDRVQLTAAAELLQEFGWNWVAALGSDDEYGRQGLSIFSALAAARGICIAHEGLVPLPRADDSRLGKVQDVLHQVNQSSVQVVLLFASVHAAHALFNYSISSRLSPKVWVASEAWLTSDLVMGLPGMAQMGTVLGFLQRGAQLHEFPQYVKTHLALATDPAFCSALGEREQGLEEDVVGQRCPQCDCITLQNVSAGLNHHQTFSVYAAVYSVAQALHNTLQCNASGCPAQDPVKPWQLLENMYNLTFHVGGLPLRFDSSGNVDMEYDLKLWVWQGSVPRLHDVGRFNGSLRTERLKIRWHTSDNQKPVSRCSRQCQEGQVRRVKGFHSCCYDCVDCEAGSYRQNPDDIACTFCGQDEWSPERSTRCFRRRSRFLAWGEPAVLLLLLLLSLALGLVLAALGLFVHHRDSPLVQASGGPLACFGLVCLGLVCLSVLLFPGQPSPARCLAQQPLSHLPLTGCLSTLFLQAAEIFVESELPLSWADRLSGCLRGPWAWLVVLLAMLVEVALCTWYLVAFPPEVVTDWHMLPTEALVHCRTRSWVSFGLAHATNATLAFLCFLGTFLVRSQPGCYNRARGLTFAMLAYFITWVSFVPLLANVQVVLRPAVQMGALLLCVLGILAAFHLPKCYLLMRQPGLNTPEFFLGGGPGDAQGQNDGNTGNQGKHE
Assay: Calcium mobilisation assay, TAS1R2-WT with TAS1R3 variant R813K
Format: cell-based
Settings: maximal signal amplitude
The compounds listed here are annotated with their Max ΔF/F0.
Keep the answer to the number alone.

compound	endpoint_value
C[C@H](CC[C@@H](O[C@@H]1O[C@H](CO[C@@H]2O[C@H](CO)[C@@H](O)[C@H](O)[C@H]2O)[C@@H](O)[C@H](O)[C@H]1O[C@@H]1O[C@H](CO)[C@@H](O)[C@H](O)[C@H]1O)C(C)(C)O)[C@H]1CC[C@@]2(C)[C@@H]3CC=C4[C@@H](CC[C@H](O[C@@H]5O[C@H](CO[C@@H]6O[C@H](CO)[C@@H](O)[C@H](O)[C@H]6O)[C@@H](O)[C@H](O)[C@H]5O)C4(C)C)[C@]3(C)[C@H](O)C[C@]12C [Mogroside V, mogroside V]	1.14
C=C(C)[C@@H]1CC=C(/C=N/O)CC1	1.28
OC[C@H]1O[C@H](O[C@]2(CCl)O[C@H](CCl)[C@@H](O)[C@@H]2O)[C@H](O)[C@@H](O)[C@H]1Cl	0.90

What Max ΔF/F0 value was documented for this compound, "COC(=O)[C@H](Cc1ccccc1)NC(=O)[C@H](CC(=O)O)NCCC(C)(C)C" ?
0.79

* * *

Molecular target: human TAS1R2-R838K/TAS1R3-WT (Homo sapiens, UniProt Q7RTX0+Q8TE23, R838K)
Construct: expressed in transfected cells; host or cells: HEK293T-Gα16gust44
Sequence (Q8TE23 20-839 R838K): as the sequence (Q8TE23 20-839) above, with R819K counted along it
Sequence (Q7RTX0 21-852): as the sequence (Q7RTX0 21-852 R813K) above, with K793R counted along it
Test: Calcium mobilisation assay, TAS1R2 variant R838K with TAS1R3-WT
Type: cell-based
Details: maximal signal amplitude
Label fulfilled when Max ΔF/F0 is at or above 0.8; anything below gets not fulfilled.

# example entries with known answers
molecule	class_name
CC1=CC(=O)NS(=O)(=O)O1	not fulfilled
COC(=O)[C@H](Cc1ccccc1)NC(=O)[C@H](CC(=O)O)NCCC(C)(C)C	not fulfilled
C=C1C[C@@]23CC[C@H]4[C@@](C)(CCC[C@@]4(C)C(=O)O[C@@H]4O[C@H](CO)[C@@H](O)[C@H](O[C@@H]5O[C@H](CO)[C@@H](O)[C@H](O)[C@H]5O)[C@H]4O[C@@H]4O[C@H](CO)[C@@H](O)[C@H](O)[C@H]4O)[C@@H]2CC[C@]1(O[C@@H]1O[C@H](CO)[C@@H](O)[C@H](O[C@@H]2O[C@H](CO)[C@@H](O)[C@H](O)[C@H]2O)[C@H]1O[C@@H]1O[C@H](CO)[C@@H](O)[C@H](O)[C@H]1O)C3 [Rebaudioside M, rebaudioside M]	fulfilled
C=C(C)[C@@H]1CC=C(/C=N/O)CC1	fulfilled
OC[C@H]1O[C@H](O[C@]2(CCl)O[C@H](CCl)[C@@H](O)[C@@H]2O)[C@H](O)[C@@H](O)[C@H]1Cl	not fulfilled

# ---- query molecule ----
Determine whether this molecule has Max ΔF/F0 no lower than 0.8: C[C@H](CC[C@@H](O[C@@H]1O[C@H](CO[C@@H]2O[C@H](CO)[C@@H](O)[C@H](O)[C@H]2O)[C@@H](O)[C@H](O)[C@H]1O[C@@H]1O[C@H](CO)[C@@H](O)[C@H](O)[C@H]1O)C(C)(C)O)[C@H]1CC[C@@]2(C)[C@@H]3CC=C4[C@@H](CC[C@H](O[C@@H]5O[C@H](CO[C@@H]6O[C@H](CO)[C@@H](O)[C@H](O)[C@H]6O)[C@@H](O)[C@H](O)[C@H]5O)C4(C)C)[C@]3(C)[C@H](O)C[C@]12C [Mogroside V, mogroside V]
fulfilled
